Molecular target: T1, proprotein convertase subtilisin/kexin type 9 (PCSK9) (human, UniProt Q8NBP7 31-692)
T1 construct: His-tagged full-length PCSK9 in TR-FRET and SPR, biotinylated in phage ELISA; secreted protein is autoprocessed (prodomain plus catalytic/CRD chain starting at S153); also called rec.PCSK9; His-PCSK9
T1 sequence (Q8NBP7 other isoform, or with tags, fused parts or gaps limits assumed): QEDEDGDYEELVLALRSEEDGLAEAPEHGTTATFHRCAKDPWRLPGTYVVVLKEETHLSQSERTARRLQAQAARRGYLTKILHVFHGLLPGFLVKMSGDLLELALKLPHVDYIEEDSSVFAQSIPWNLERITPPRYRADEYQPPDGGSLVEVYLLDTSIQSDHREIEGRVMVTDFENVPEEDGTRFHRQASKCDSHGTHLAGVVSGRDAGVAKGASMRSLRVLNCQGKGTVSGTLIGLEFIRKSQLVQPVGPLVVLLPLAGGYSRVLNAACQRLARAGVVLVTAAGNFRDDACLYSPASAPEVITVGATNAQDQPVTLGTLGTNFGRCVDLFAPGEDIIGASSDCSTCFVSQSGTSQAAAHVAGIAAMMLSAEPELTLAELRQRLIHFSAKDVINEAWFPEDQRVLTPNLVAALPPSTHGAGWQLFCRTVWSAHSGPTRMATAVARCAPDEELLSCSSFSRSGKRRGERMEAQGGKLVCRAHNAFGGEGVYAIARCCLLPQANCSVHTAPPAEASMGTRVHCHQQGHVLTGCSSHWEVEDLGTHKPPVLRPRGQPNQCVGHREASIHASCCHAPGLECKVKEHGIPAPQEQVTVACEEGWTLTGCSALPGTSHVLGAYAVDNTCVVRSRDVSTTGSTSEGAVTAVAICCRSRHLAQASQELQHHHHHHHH
Assay: phage spot ELISA
Ends that are not written are not given here.
I'd be grateful if you could share measured s/n ratio for these entries.
Answers are plain numbers.

Please review the following examples before continuing.
# BINDER, s/n ratio
records = [
    ("SGACVKPCIAGNIIR [SEQ ID NO 388]", 9.44),
    ("SGGACPWNLERIGLSC [SEQ ID NO 384]", 9.77),
]

Batch request: s/n ratio for each of the following binders.
1. SGCSDLWNLARIYPMC [SEQ ID NO 391]
2. SGGSMPWNLERIFALH [SEQ ID NO 390]
3. SGDFIPWNLVRIGLLR [SEQ ID NO 385]
4. SGRCLNHLISGNMNSC [SEQ ID NO 387]

[out]
1. 3.59
2. 15.8
3. 3.42
4. 17.5

Batch request: s/n ratio for each of the following binders.
1. SGDLMPWNLVRIGLLR [SEQ ID NO 389]
2. SGCFIPWNLQRIGLLC (not fully specified (C-terminus, bridges); cysteine pairing not given here) [SEQ ID NO 383]

[out]
[16.5, 8.11]
